Biological target: FGFR1 (UniProt P11362)
Sequence (P11362 whole entry, looked up): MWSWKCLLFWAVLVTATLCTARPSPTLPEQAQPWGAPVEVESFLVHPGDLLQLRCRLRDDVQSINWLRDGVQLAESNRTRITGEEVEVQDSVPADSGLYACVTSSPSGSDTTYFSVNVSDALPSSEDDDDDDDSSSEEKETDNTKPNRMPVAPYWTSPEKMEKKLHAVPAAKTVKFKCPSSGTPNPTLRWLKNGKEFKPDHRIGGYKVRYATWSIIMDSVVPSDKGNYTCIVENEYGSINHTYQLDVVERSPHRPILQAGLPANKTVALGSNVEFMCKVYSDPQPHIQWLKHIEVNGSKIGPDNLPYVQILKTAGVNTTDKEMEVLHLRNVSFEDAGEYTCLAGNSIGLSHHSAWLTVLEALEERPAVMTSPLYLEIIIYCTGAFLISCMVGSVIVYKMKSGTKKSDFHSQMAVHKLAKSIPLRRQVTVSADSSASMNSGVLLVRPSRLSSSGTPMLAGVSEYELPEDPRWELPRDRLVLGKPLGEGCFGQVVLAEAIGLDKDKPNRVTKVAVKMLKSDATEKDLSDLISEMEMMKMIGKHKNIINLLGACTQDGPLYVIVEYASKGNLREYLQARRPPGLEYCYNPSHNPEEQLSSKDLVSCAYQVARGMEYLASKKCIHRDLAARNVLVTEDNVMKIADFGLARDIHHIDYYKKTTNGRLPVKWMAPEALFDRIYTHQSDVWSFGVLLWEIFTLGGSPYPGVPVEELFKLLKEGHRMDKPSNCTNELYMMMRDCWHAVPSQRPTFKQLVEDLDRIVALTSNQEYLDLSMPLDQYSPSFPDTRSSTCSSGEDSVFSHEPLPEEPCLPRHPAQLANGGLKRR
Assay: phosphorylation enrichment, bacterial display (enrichment ratio); higher = better substrate or ligand; peptides without Tyr show the background;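 further: 11-residue human phosphosite peptides and single-mutation variants displayed on the E. coli surface, counted by deep sequencing, each peptide's frequency after selection divided by its frequency in the unselected input library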;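 further: frequency after pTyr selection over input frequency; kinase dosed for 20-30% of maximal phosphorylation in three min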
// map phosphorylation enrichment onto a label; ranges low: < 0.5; middle: ≥ 0.5 and < 1; high: ≥ 1

Q: Assign a bin to VDDQIYFFRKP [PBRM1_Y1289_E1287Q_YF]
Result: high

Q: Assign a bin to SVVVPHEPPEV [TP53_Y220_Y220H]
Result: middle

Q: Assign a bin to NIEPVYLNMLL [ATR_Y317]
Result: high

Q: Assign a bin to RRSQSYIPTSG [PLEKHA2_Y185]
Result: middle

Q: Assign a bin to MKALGYFAVVT [OPA1_Y498]
Result: middle

Q: Assign a bin to IKKFKYGIEEH [GJA1_Y137]
Result: low

Q: Assign a bin to QDDTVYMGKVT [DCTN1_Y1244]
Result: middle

Q: Assign a bin to KSSDVYVSFDC [SORL1_Y136_Y141C_YF]
Result: high

Q: Assign a bin to CTTIHYNYMCI [TP53_Y234_N239I]
Result: high

Q: Assign a bin to NVFGNYNNQSS [HNRNPA1_Y318_D314V]
Result: low

Q: Assign a bin to LSIDRYHAIVF [NPSR1_Y147_YF]
Result: high

Q: Assign a bin to VDDEIYYFRKP [PBRM1_Y1289]
Result: high

Q: Assign a bin to IGVDSYSVCKR [RPS6KA3_Y433_G431D]
Result: low

Q: Assign a bin to GFSDPYVKASL [SYT3_Y470]
Result: low

Q: Assign a bin to SQETYYRVSNM [ABCD1_Y181_Q178E]
Result: high

Q: Assign a bin to TDKLFYIYTSG [SLC27A4_Y243]
Result: middle

Q: Assign a bin to EKEQNYDLTEV [ECD_Y448]
Result: middle

Q: Assign a bin to HQNGMYGLHQD [SGSH_Y89]
Result: middle

Q: Assign a bin to DGQSVYKLTDF [TBK1_Y153]
Result: low

Q: Assign a bin to HYGNNYTDVLQ [MACC1_Y803_R804T]
Result: high

Q: Assign a bin to TRTEAYAVSSF
Result: low

Q: Assign a bin to WVYNHYRCIIW [BRCA2_Y2624_W2626C]
Result: middle

Q: Assign a bin to TTKAKYKTPTY [PLD2_Y573]
Result: low

Q: Assign a bin to PFADPYFDFEI [ZC3H18_Y371_YF]
Result: high

Q: Assign a bin to RALCHYYKLNI [ETV6_Y401_R399C]
Result: high

Q: Assign a bin to NGRQCYSCKGN [PLAUR_Y217]
Result: low

Q: Assign a bin to DDPRRYQKYGY [OAS1_Y362]
Result: low

Q: Assign a bin to KLPFPYDDPFS [GPX2_Y127_YF]
Result: middle

Q: Assign a bin to ALTDNYMFVVI [HAGH_Y61_L64V_YF]
Result: high
